Biological target: Tyrosine-protein kinase Mer (Homo sapiens) (UniProt Q12866)
Sequence (Q12866 whole entry): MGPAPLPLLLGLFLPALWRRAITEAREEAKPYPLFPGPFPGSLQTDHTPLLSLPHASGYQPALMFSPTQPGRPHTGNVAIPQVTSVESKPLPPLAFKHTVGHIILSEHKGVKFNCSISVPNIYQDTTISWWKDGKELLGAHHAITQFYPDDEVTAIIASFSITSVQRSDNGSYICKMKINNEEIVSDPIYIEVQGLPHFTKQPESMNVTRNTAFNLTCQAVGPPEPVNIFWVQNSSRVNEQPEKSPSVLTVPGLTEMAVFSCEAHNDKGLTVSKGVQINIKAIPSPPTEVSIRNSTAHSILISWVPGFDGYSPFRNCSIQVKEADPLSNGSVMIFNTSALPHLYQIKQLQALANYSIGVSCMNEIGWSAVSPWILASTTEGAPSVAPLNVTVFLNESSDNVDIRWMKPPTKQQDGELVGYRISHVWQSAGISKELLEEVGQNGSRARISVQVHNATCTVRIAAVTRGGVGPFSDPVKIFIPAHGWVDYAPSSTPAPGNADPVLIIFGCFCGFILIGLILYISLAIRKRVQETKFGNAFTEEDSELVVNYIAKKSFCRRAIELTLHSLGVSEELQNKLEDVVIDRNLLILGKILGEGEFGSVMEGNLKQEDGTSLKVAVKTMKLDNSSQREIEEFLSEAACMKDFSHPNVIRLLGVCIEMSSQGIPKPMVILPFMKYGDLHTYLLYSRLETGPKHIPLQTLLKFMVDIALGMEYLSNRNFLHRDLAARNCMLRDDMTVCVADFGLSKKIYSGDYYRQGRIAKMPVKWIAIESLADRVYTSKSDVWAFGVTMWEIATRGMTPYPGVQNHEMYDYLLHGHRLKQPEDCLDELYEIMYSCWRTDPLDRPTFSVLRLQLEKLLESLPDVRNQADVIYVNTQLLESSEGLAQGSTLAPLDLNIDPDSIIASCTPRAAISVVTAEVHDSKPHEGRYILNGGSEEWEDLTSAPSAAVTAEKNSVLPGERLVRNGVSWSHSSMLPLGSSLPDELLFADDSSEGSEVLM
Experiment: Inhibition of Mer (unknown origin) at 75 uM relative to control
Listed below: inhibition values for each entry.

COMPOUND_STRUCTURE	TARGET_DESC	OUTPUT_UNIT	inhibition
Nc1cc(Oc2ccc(NC(=O)c3cccn(-c4ccc(F)cc4)c3=O)cc2F)ncn1	Tyrosine-protein kinase Mer (Homo sapiens) (UniProt Q12866)	%	83
Nc1cc(Oc2ccc(NC(=O)c3cccn(-c4ccc(F)cc4F)c3=O)cc2F)ncn1	Tyrosine-protein kinase Mer (Homo sapiens) (UniProt Q12866)	%	87
CCOc1ccn(-c2ccc(F)cc2)c(=O)c1C(=O)Nc1ccc(Oc2ccnc(N)c2Cl)c(F)c1	Tyrosine-protein kinase Mer (Homo sapiens) (UniProt Q12866)	%	95
Nc1cc(Oc2ccc(NC(=O)c3cccn(-c4ccc(F)cc4)c3=O)cc2)ncn1	Tyrosine-protein kinase Mer (Homo sapiens) (UniProt Q12866)	%	100
Cc1cc(F)ccc1-n1cccc(C(=O)Nc2ccc(Oc3cc(N)ncn3)c(F)c2)c1=O	Tyrosine-protein kinase Mer (Homo sapiens) (UniProt Q12866)	%	99
O=C(Nc1ccc(Oc2cc(NCCN3CCOCC3)ncn2)c(F)c1)c1cccn(-c2ccc(F)cc2)c1=O	Tyrosine-protein kinase Mer (Homo sapiens) (UniProt Q12866)	%	49

* * *

Biological target: Tyrosine-protein kinase ABL1 (Homo sapiens) (UniProt P00519)
Sequence (P00519 whole entry): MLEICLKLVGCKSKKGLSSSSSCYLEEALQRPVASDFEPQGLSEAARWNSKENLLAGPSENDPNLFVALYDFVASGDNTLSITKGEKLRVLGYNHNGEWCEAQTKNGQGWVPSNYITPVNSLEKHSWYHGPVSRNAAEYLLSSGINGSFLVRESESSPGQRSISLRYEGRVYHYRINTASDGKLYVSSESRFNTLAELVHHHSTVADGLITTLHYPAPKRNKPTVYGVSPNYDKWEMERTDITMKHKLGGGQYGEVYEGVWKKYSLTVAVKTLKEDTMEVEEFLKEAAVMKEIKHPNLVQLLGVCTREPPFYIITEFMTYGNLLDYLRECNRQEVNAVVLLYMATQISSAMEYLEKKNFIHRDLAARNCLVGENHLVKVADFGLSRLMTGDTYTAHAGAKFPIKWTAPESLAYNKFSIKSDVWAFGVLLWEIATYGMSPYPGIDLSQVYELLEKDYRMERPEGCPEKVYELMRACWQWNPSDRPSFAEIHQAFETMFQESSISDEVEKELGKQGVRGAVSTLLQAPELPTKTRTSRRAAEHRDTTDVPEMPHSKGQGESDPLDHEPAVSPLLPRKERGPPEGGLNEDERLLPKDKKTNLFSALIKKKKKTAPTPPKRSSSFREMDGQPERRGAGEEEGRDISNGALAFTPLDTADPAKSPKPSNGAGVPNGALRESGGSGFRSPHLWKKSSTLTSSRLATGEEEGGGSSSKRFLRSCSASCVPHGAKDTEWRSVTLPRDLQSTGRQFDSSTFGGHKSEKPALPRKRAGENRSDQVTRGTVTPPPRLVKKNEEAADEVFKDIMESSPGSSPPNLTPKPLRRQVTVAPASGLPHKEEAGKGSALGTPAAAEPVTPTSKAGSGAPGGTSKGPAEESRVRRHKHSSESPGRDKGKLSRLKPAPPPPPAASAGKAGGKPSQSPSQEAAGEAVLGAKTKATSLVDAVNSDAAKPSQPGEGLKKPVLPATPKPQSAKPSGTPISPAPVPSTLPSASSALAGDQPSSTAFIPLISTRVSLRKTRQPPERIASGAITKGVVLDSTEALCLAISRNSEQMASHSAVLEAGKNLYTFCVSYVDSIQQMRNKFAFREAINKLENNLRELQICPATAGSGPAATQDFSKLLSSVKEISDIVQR
Test: Inhibition of non-phosphorylated form of Abl1 (unknown origin) at 75 uM relative to control
Listed below: inhibition values for each entry.
RESULT_TYPE: inhibition

COMPOUND_STRUCTURE	RESULT_TYPE	OBSERVED_MEASUREMENT
Nc1nccc(Oc2ccc(NC(=O)c3cccn(-c4ccc(F)cc4)c3=O)cc2F)n1	inhibition	32%
O=C(Nc1ccc(Oc2ncnc3[nH]cnc23)c(F)c1)c1cccn(-c2ccc(F)cc2)c1=O	inhibition	66%
CCOc1ccn(-c2ccc(F)cc2)c(=O)c1C(=O)Nc1ccc(Oc2ccnc(N)c2Cl)c(F)c1	inhibition	100%
Cc1cc(F)ccc1-n1cccc(C(=O)Nc2ccc(Oc3cc(N)ncn3)c(F)c2)c1=O	inhibition	98%
Nc1cc(Oc2ccc(NC(=O)c3cccn(-c4ccc(F)cc4F)c3=O)cc2F)ncn1	inhibition	85%
O=C(Nc1ccc(Oc2cc(NCCN3CCOCC3)ncn2)c(F)c1)c1cccn(-c2ccc(F)cc2)c1=O	inhibition	71%
Nc1cc(Oc2ccc(NC(=O)c3cccn(-c4ccc(F)cc4)c3=O)cc2F)ncn1	inhibition	94%
Nc1cc(Oc2ccc(NC(=O)c3cccn(-c4ccc(F)cc4)c3=O)cc2)ncn1	inhibition	94%

* * *

Molecular target: Tyrosine-protein kinase receptor TYRO3 (Homo sapiens)
Experiment: Inhibition of recombinant human Tyro3 kinase domain using poly (Glu, Ala, Tyr) as substrate at 0.5 uM after 1.5 hrs by ELISA relative to control
Listed below: inhibition values for each entry.

COMPOUND_STRUCTURE	TARGET_DESC	inhibition [%]
Nc1cc(Oc2ccc(NC(=O)c3cccn(-c4ccc(F)cc4)c3=O)cc2F)ncn1	Tyrosine-protein kinase receptor TYRO3 (Homo sapiens)	77
Nc1cc(Oc2ccc(NC(=O)c3cccn(-c4ccc(F)cc4)c3=O)cc2)ncn1	Tyrosine-protein kinase receptor TYRO3 (Homo sapiens)	41
Cc1cc(F)ccc1-n1cccc(C(=O)Nc2ccc(Oc3cc(N)ncn3)c(F)c2)c1=O	Tyrosine-protein kinase receptor TYRO3 (Homo sapiens)	48

* * *

Listed below: inhibition values for each entry.
Biological target: UniProt P30530
Sequence (P30530 whole entry): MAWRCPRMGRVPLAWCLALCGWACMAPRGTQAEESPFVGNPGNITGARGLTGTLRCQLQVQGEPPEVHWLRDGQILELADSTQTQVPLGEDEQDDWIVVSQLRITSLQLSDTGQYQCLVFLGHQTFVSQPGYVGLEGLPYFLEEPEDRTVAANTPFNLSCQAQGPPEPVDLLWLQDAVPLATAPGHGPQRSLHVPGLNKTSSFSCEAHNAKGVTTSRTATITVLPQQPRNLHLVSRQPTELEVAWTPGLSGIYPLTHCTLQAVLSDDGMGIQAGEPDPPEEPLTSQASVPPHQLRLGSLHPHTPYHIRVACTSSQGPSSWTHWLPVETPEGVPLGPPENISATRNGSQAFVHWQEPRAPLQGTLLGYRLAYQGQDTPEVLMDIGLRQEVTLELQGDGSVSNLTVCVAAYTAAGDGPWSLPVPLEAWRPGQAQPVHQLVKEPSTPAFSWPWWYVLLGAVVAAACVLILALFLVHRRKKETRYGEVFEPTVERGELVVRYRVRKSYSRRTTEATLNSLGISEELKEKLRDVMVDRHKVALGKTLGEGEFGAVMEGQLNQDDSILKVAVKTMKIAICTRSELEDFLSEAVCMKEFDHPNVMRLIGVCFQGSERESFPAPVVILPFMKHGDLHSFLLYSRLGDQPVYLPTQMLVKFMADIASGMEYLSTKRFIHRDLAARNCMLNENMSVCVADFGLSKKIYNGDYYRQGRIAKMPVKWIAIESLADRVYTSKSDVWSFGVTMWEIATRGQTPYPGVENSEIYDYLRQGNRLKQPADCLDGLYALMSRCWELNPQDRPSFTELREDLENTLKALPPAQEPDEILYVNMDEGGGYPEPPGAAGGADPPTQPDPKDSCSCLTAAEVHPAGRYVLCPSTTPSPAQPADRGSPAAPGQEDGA
Assay: Inhibition of Axl (unknown origin) at 75 uM relative to control

COMPOUND_STRUCTURE	inhibition
O=C(Nc1ccc(Oc2cc(NCCN3CCOCC3)ncn2)c(F)c1)c1cccn(-c2ccc(F)cc2)c1=O	100%
O=C(Nc1ccc(Oc2ncnc3[nH]cnc23)c(F)c1)c1cccn(-c2ccc(F)cc2)c1=O	98%
CCOc1ccn(-c2ccc(F)cc2)c(=O)c1C(=O)Nc1ccc(Oc2ccnc(N)c2Cl)c(F)c1	99%
Nc1nccc(Oc2ccc(NC(=O)c3cccn(-c4ccc(F)cc4)c3=O)cc2F)n1	100%
Nc1cc(Oc2ccc(NC(=O)c3cccn(-c4ccc(F)cc4F)c3=O)cc2F)ncn1	100%
Cc1cc(F)ccc1-n1cccc(C(=O)Nc2ccc(Oc3cc(N)ncn3)c(F)c2)c1=O	100%
